Molecular target: furin, P09958;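 note: purified furin at 1:10 enzyme:substrate in 50 mM HEPES pH 7.5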
Sequence (P09958 whole entry): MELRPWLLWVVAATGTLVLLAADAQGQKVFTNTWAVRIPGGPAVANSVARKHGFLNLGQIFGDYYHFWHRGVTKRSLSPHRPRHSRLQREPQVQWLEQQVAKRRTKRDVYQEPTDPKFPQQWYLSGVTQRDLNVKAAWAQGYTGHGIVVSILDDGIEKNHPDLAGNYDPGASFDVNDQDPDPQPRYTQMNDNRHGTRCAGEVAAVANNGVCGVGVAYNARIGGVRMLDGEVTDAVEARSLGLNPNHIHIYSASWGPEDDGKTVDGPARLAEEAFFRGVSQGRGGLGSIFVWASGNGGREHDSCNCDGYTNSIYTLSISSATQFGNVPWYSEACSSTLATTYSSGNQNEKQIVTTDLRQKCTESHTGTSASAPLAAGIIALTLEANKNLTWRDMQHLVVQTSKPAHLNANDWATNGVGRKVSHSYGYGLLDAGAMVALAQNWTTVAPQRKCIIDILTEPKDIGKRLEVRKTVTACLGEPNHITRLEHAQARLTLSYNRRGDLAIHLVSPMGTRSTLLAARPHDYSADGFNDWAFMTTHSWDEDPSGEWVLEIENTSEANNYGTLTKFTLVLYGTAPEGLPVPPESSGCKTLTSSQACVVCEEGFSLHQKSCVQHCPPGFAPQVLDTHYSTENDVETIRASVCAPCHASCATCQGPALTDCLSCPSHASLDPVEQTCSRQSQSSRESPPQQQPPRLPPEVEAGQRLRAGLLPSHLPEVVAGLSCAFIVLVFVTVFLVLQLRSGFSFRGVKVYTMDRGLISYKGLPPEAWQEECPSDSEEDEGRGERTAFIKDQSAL
Experiment: furin cleavage Z-score vs untreated control; higher = more cleavage, active = 3.5 or more, inactive = 1 or less, 8 variable residues between constant flanks
Details: 7.5 min
Some of the results follow. The true hit rate is not given.
Parameter furin cleavage Z-score: see the listing below.
Just the number, please.

{"RECORD SEQUENCE": "CARARRRSAEAGNASASA [FS-2889]", "NUMERIC VALUE": 2.93}

// furin cleavage Z-score lookup, sequence = CARRLRARREAGNASASA [FS-291] , result: 9.55

Reported furin cleavage Z-score for CADFDSVIDCAGNASASA [HC884] was -0.725
